Values were extracted from PubChem BioAssay AID179.

System: CEM cells HIV-1 protection, formazan growth assay
Assay: NCI AIDS Antiviral Assay;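 active = compounds giving half or more protection of infected cells from virus-caused growth loss, again on retest; inactive = the rest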
Possible outcomes: 1 for active, -1 for inactive

{"compound": "Cc1cccc(C)c1NC(=O)CCCC(=O)CC(=O)/C=C/c1ccccc1", "answerLabel": -1}
{"compound": "Cn1ncc2c(c1=O)Nc1ccccc1S2(=O)=O", "answerLabel": -1}
{"compound": "Cc1cc(=O)c2c(O)cc(O)c(C3CCN(C)CC3O)c2o1 (configuration not stated)", "answerLabel": 1}
{"compound": "COc1ccc2c(c1)C=CC1OC(C(C)=O)(C(C)=O)C(C=O)=CN21 (configuration not stated)", "answerLabel": -1}
{"compound": "O=C(CCCn1cnc([N+](=O)[O-])n1)NCCCn1ccnc1[N+](=O)[O-]", "answerLabel": -1}
{"compound": "N#CC(c1ccccc1)N(CCOCCOCCN(C(=O)c1cccc2ccccc12)C(C#N)c1ccccc1)C(=O)c1cccc2ccccc12 (configuration not stated)", "answerLabel": -1}
{"compound": "CN(C)CCCN=c1c2ccccc2n(O)c2ccccc12", "answerLabel": -1}
{"compound": "N#CC(C#N)=C(N)/C(C#N)=C/c1ccc2[nH]ccc2c1", "answerLabel": -1}
{"compound": "CC1C(Cl)(Cl)C1(C)/C=C/C1C(C)(C)C1(Cl)Cl (configuration not stated)", "answerLabel": -1}
{"compound": "O=C1/C(=C/c2cccc(Br)c2)Cc2ccccc21", "answerLabel": -1}
{"compound": "O=C(N/N=C\\c1ccccc1)c1ccccc1Nc1ccccc1C(=O)N/N=C/c1ccccc1", "answerLabel": 1}
{"compound": "C/C(=N/NC(=S)N1CC2CCC(CC2)C1)c1cnccn1", "answerLabel": -1}
{"compound": "CCO/C=C1\\N=C(c2ccc(Cl)c(Cl)c2)OC1=O", "answerLabel": -1}
{"compound": "c1ccc2c(c1)SCCc1nncn1-2", "answerLabel": -1}
{"compound": "CCCCCCCCCCCCCCCCNC(=O)/C(=C\\c1ccccc1O)NC(=O)c1ccccc1", "answerLabel": -1}
{"compound": "CCCC(=O)NC1CCc2cc(OC)c(OC)c(OC)c2-c2ccc(OC)c(=O)cc21 (configuration not stated)", "answerLabel": -1}
{"compound": "COc1cc(C[C@H]2C(=O)OCC2Cc2ccc(OC)c(OC)c2)ccc1O (some centres not stated)", "answerLabel": -1}
